The origin of these recorded values is ChEMBL document CHEMBL4219246.

# Test system: DHFR (human versus Pneumocystis jirovecii)
# Test Description: Selectivity ratio of IC50 for human recombinant DHFR to IC50 for Pneumocystis jirovecii recombinant DHFR
# Experimental Conditions: read-out: Ratio IC50
Some molecules, each annotated with its measured selectivity ratio.
Respond numerically, and do not add a unit to the figure.

CCn1c(Sc2cccc(OC)c2)c(C)c2c(N)nc(N)nc21 : 15
Cc1c(Sc2ccc(OC(F)(F)F)cc2)[nH]c2nc(N)nc(N)c12 : 10

Lab note: next molecule to report on.
Inquiry: # lookup: selectivity ratio of Cc1c(Sc2ccc(F)c(F)c2)[nH]c2nc(N)nc(N)c12
Reply text: 10
